Tested on: Escherichia coli TOP10
PROTOCOL_TEXT: shrunken log2 fold change of peptide-encoding DNA abundance (4.5 h post-induction vs induction); higher = less antimicrobial activity (less host growth inhibition)
TEST_CONTEXT: time post-induction: 4.5 h; library: site-saturation at positions 5, 18, 19, 20
Exercise: for every item that follows, state its recorded shrunken log2 fold change.
Give bare numbers.

Examples with their reported shrunken log2 fold change follow.
RRIRYRPPRLPRPRPRPYHKPRP	-0.249
RRIRMRPPRLPRPRPRPKWVPRP	0.466
RRIRMRPPRLPRPRPRPGFEPRP	0.526
RRIRNRPPRLPRPRPRPFCTPRP	-0.351
RRIRMRPPRLPRPRPRPPKHPRP	0.829
RRIRFRPPRLPRPRPRPSQDPRP	0.0128

Parameters: items (list). Returns: shrunken log2 fold change for each item.
1. RRIRKRPPRLPRPRPRPNSHPRP
2. RRIRPRPPRLPRPRPRPSICPRP
3. RRIRRRPPRLPRPRPRPWFAPRP
4. RRIRNRPPRLPRPRPRPQRWPRP
5. RRIRKRPPRLPRPRPRPQHAPRP
6. RRIRCRPPRLPRPRPRPFVQPRP
7. RRIRFRPPRLPRPRPRPCVPPRP
8. RRIRSRPPRLPRPRPRPIFWPRP

1. -0.272
2. -0.718
3. 0.204
4. 0.176
5. 0.232
6. -0.86
7. -0.835
8. 0.403

====

System: Escherichia coli TOP10
PROTOCOL_TEXT: shrunken log2 fold change of peptide-encoding DNA abundance (4.5 h post-induction vs induction); higher = less antimicrobial activity (less host growth inhibition)
TEST_CONTEXT: time post-induction: 4.5 h; library: site-saturation at positions 5, 18, 19, 20
ASSAY_METRIC: shrunken log2 fold change
Give bare numbers.

Examples with their reported shrunken log2 fold change follow.
RRIRARPPRLPRPRPRPHCTPRP	1.18
RRIRSRPPRLPRPRPRPEHLPRP	-0.258
RRIRCRPPRLPRPRPRPCQHPRP	-0.161

Parameters: items (list). Returns: shrunken log2 fold change for each item.
1. RRIRQRPPRLPRPRPRPMLLPRP
2. RRIRERPPRLPRPRPRPFVGPRP
3. RRIRPRPPRLPRPRPRPIFKPRP
4. RRIRSRPPRLPRPRPRPWRKPRP
5. RRIRRRPPRLPRPRPRPGIHPRP
6. RRIRCRPPRLPRPRPRPTVDPRP

[-0.337, -0.143, -0.0374, 0.0156, 0.252, 0.337]

Parameters: items (list). Returns: shrunken log2 fold change for each item.
1. RRIRMRPPRLPRPRPRPFPEPRP
2. RRIRCRPPRLPRPRPRPRCLPRP
3. RRIRFRPPRLPRPRPRPKSQPRP
4. RRIRVRPPRLPRPRPRPKLCPRP

1: 0.562; 2: -0.32; 3: -0.0404; 4: -0.0766

====

Test system: Escherichia coli TOP10
PROTOCOL_TEXT: shrunken log2 fold change of peptide-encoding DNA abundance (4.5 h post-induction vs induction); higher = less antimicrobial activity (less host growth inhibition)
TEST_CONTEXT: time post-induction: 4.5 h; library: site-saturation at positions 5, 18, 19, 20
Class (required): determined from shrunken log2 fold change; valid ranges are lo (below -0.09), mid (-0.09 to below 0.03), hi (0.03 or more)

RRIRHRPPRLPRPRPRPGTAPRP	lo

Next:
Class (by measured shrunken log2 fold change) for RRIRPRPPRLPRPRPRPRIGPRP
hi

====

System: Escherichia coli TOP10
PROTOCOL_TEXT: shrunken log2 fold change of peptide-encoding DNA abundance (4.5 h post-induction vs induction); higher = less antimicrobial activity (less host growth inhibition)
TEST_CONTEXT: time post-induction: 4.5 h; library: site-saturation at positions 5, 18, 19, 20
ASSAY_METRIC: shrunken log2 fold change
Give bare numbers.

RRIRVRPPRLPRPRPRPGIDPRP	-0.143
RRIRHRPPRLPRPRPRPYQMPRP	-0.113
RRIRERPPRLPRPRPRPQISPRP	-0.0116
RRIRKRPPRLPRPRPRPRLVPRP	0.338
RRIRQRPPRLPRPRPRPVTIPRP	-0.0898

Parameters: items (list). Returns: shrunken log2 fold change for each item.
1. RRIRSRPPRLPRPRPRPWLLPRP
2. RRIRTRPPRLPRPRPRPDCIPRP
3. RRIRMRPPRLPRPRPRPYRKPRP
4. RRIRVRPPRLPRPRPRPCCFPRP
5. RRIRVRPPRLPRPRPRPGIPPRP
6. RRIRFRPPRLPRPRPRPSMHPRP
7. RRIRWRPPRLPRPRPRPECSPRP

1: -0.337; 2: -0.0428; 3: -0.432; 4: -0.00712; 5: -0.103; 6: -0.291; 7: 0.966

====

Tested on: Escherichia coli TOP10
PROTOCOL_TEXT: shrunken log2 fold change of peptide-encoding DNA abundance (4.5 h post-induction vs induction); higher = less antimicrobial activity (less host growth inhibition)
TEST_CONTEXT: time post-induction: 4.5 h; library: site-saturation at positions 5, 18, 19, 20
Exercise: for every item that follows, state its recorded shrunken log2 fold change.
Numbers only.

RRIRARPPRLPRPRPRPIEEPRP	-0.0473

Parameters: items (list). Returns: shrunken log2 fold change for each item.
1. RRIRMRPPRLPRPRPRPMLYPRP
2. RRIRDRPPRLPRPRPRPDCIPRP
3. RRIRRRPPRLPRPRPRPYWIPRP

1: 0.0885; 2: 0.438; 3: -0.918

Parameters: items (list). Returns: shrunken log2 fold change for each item.
1. RRIRGRPPRLPRPRPRPMYDPRP
2. RRIRSRPPRLPRPRPRPTLFPRP
3. RRIRYRPPRLPRPRPRPVDDPRP
4. RRIRCRPPRLPRPRPRPHQPPRP

1. 0.233
2. 0.206
3. -0.443
4. 0.0495

====

Tested on: Escherichia coli TOP10
PROTOCOL_TEXT: shrunken log2 fold change of peptide-encoding DNA abundance (4.5 h post-induction vs induction); higher = less antimicrobial activity (less host growth inhibition)
TEST_CONTEXT: time post-induction: 4.5 h; library: site-saturation at positions 5, 18, 19, 20
ASSAY_METRIC: shrunken log2 fold change

Examples with their reported shrunken log2 fold change follow.
RRIRCRPPRLPRPRPRPHCQPRP	0.0911
RRIRERPPRLPRPRPRPMGQPRP	-0.0667
RRIRERPPRLPRPRPRPEQYPRP	-0.14

Parameters: items (list). Returns: shrunken log2 fold change for each item.
1. RRIRQRPPRLPRPRPRPKIGPRP
2. RRIRRRPPRLPRPRPRPFLRPRP
3. RRIRHRPPRLPRPRPRPCDRPRP
4. RRIRIRPPRLPRPRPRPKQCPRP
5. RRIRGRPPRLPRPRPRPLMPPRP
6. RRIRWRPPRLPRPRPRPGIEPRP

-0.0543
0.382
-0.239
-0.178
0.285
0.281

Parameters: items (list). Returns: shrunken log2 fold change for each item.
1. RRIRQRPPRLPRPRPRPAWLPRP
2. RRIRIRPPRLPRPRPRPMLHPRP
3. RRIRSRPPRLPRPRPRPRKRPRP
4. RRIRGRPPRLPRPRPRPWHAPRP
5. RRIRYRPPRLPRPRPRPWDWPRP

-0.123
-0.749
0.213
0.281
-0.0724

Request body: readout shrunken log2 fold change, system Escherichia coli TOP10, query RRIRARPPRLPRPRPRPRTSPRP . Return the value.
0.382

====

Test system: Escherichia coli TOP10;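 note: peptides expressed intracellularly from a pBAD plasmid library in pooled LB shake-flask culture, induced with 0.3% L-arabinose, DNA abundance read by NGS, three biological replicates, DESeq2 with apeglm shrinkage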
PROTOCOL_TEXT: shrunken log2 fold change of peptide-encoding DNA abundance (4.5 h post-induction vs induction); higher = less antimicrobial activity (less host growth inhibition)
TEST_CONTEXT: time post-induction: 4.5 h; library: site-saturation at positions 5, 18, 19, 20
ASSAY_METRIC: shrunken log2 fold change
Numbers only.

Examples with their reported shrunken log2 fold change follow.
RRIRVRPPRLPRPRPRPGNNPRP	-0.249
RRIRQRPPRLPRPRPRPWHSPRP	-0.00968
RRIRWRPPRLPRPRPRPRIGPRP	0.138
RRIRSRPPRLPRPRPRPMIDPRP	-0.249
RRIRPRPPRLPRPRPRPYDKPRP	-0.512

Parameters: items (list). Returns: shrunken log2 fold change for each item.
1. RRIRNRPPRLPRPRPRPRADPRP
2. RRIRMRPPRLPRPRPRPWLTPRP
3. RRIRERPPRLPRPRPRPSLNPRP

1. 0.327
2. 0.158
3. -0.181

Parameters: items (list). Returns: shrunken log2 fold change for each item.
1. RRIRWRPPRLPRPRPRPNVNPRP
2. RRIRQRPPRLPRPRPRPEGGPRP
3. RRIRDRPPRLPRPRPRPMATPRP
4. RRIRSRPPRLPRPRPRPYWKPRP

1. -0.171
2. 0.161
3. 0.415
4. -0.144
